- System Name: mu opiate receptor (MOR) (Rattus norvegicus, UniProt P33535)
- Construct: from tissue; host or cells: striatum (membrane preparation)
- Sequence (P33535 whole entry): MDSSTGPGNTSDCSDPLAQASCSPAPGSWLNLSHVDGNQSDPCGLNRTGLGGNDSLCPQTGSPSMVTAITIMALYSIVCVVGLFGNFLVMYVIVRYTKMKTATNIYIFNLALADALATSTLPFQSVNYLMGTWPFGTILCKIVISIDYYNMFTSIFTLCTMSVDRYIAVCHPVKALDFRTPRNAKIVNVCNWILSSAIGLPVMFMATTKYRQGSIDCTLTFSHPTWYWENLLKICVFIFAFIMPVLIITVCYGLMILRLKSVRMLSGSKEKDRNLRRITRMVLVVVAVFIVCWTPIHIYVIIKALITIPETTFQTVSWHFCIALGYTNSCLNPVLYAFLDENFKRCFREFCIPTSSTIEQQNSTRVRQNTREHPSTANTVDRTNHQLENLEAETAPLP
- Assay type: biochemical
% DAMGO (1 μM) for assorted molecules

- Molecule: "O=C1CN(Cc2ccccc2)C2(CCN(S(=O)(=O)c3cc(Cl)cc(Cl)c3O)CC2)N1 [Compound C0138M]"
  System Name: "mu opiate receptor (MOR) (Rattus norvegicus, UniProt P33535)"
  % DAMGO (1 μM) [%]: 90.9
- Molecule: "CC1CCC(C(C)C)C(OCC(O)CN2CCN(CCc3ccccc3)CC2)C1 (centres unmarked)"
  System Name: "mu opiate receptor (MOR) (Rattus norvegicus, UniProt P33535)"
  % DAMGO (1 μM) [%]: 88.7
- Molecule: "O=S(=O)(c1ccc2ccccc2c1)N1CCC2(CC1)OCCN2S(=O)(=O)c1ccc2ccccc2c1 [Compound C0140M]"
  System Name: "mu opiate receptor (MOR) (Rattus norvegicus, UniProt P33535)"
  % DAMGO (1 μM) [%]: 106.5
- Molecule: "CC1CCC(C(C)C)C(OCC(O)CN2CCOCC2)C1 (centres unmarked)"
  System Name: "mu opiate receptor (MOR) (Rattus norvegicus, UniProt P33535)"
  % DAMGO (1 μM) [%]: 55.6
- Molecule: "O=C(OCc1ccccc1)c1ccc(S(=O)(=O)N2CCC3(CC2)OCCN3S(=O)(=O)c2ccc(C(=O)OCc3ccccc3)cc2)cc1"
  System Name: "mu opiate receptor (MOR) (Rattus norvegicus, UniProt P33535)"
  % DAMGO (1 μM) [%]: 119.2
- Molecule: "O=S(=O)(c1ccccc1Oc1ccccc1)N1CCC2(CC1)NCCO2 [Compound C0149M-2]"
  System Name: "mu opiate receptor (MOR) (Rattus norvegicus, UniProt P33535)"
  % DAMGO (1 μM) [%]: 124.8
- Molecule: "O=S(=O)(c1csc2ccccc12)N1CCC2(CC1)OCCN2S(=O)(=O)c1csc2ccccc12 [Compound C0150M]"
  System Name: "mu opiate receptor (MOR) (Rattus norvegicus, UniProt P33535)"
  % DAMGO (1 μM) [%]: 129.8
- Molecule: "COc1ccc(S(=O)(=O)N2CCOC23CCCNC3)cc1 (centres unmarked) [Compound C0145M-3]"
  System Name: "mu opiate receptor (MOR) (Rattus norvegicus, UniProt P33535)"
  % DAMGO (1 μM) [%]: 88.7
- Molecule: "CC1CCC(C(C)C)C(OCC(O)CN2CCCCC2)C1 (centres unmarked)"
  System Name: "mu opiate receptor (MOR) (Rattus norvegicus, UniProt P33535)"
  % DAMGO (1 μM) [%]: 89.6
- Molecule: "COc1c2c(cc3c1C(CC(O)CCc1ccccc1)N(C)CC3)OCO2 (centres unmarked)"
  System Name: "mu opiate receptor (MOR) (Rattus norvegicus, UniProt P33535)"
  % DAMGO (1 μM) [%]: 76.7
- Molecule: "CS(=O)(=O)c1ccc(S(=O)(=O)N2CCOC23CCN(CC2CC2)CC3)cc1 [Compound C0126M]"
  System Name: "mu opiate receptor (MOR) (Rattus norvegicus, UniProt P33535)"
  % DAMGO (1 μM) [%]: 119.3
- Molecule: "COc1ccc(S(=O)(=O)N2CCC3(CC2)NCCC(=O)N3)cc1 [Compound C0142M]"
  System Name: "mu opiate receptor (MOR) (Rattus norvegicus, UniProt P33535)"
  % DAMGO (1 μM) [%]: 95.2
- Molecule: "CCN1CCC2(CC1)OCCN2S(=O)(=O)c1ccc(OC)cc1 [Compound C0089M]"
  System Name: "mu opiate receptor (MOR) (Rattus norvegicus, UniProt P33535)"
  % DAMGO (1 μM) [%]: 134.4
- Molecule: "CCCCc1ccc(S(=O)(=O)N2CCC3(CC2)OCCN3S(=O)(=O)c2ccc(CCCC)cc2)cc1"
  System Name: "mu opiate receptor (MOR) (Rattus norvegicus, UniProt P33535)"
  % DAMGO (1 μM) [%]: 98.0
- Molecule: "CC(=O)c1ccc(S(=O)(=O)N2CCC3(CC2)NC(=O)CN3Cc2ccccc2)cc1 [Compound C0085M]"
  System Name: "mu opiate receptor (MOR) (Rattus norvegicus, UniProt P33535)"
  % DAMGO (1 μM) [%]: 78.4
- Molecule: "COc1cc(F)ccc1C(=O)CC1c2c(cc3c(c2OC)OCO3)CC[N+]1(C)C (centres unmarked)"
  System Name: "mu opiate receptor (MOR) (Rattus norvegicus, UniProt P33535)"
  % DAMGO (1 μM) [%]: 86.1
- Molecule: "COc1ccc(S(=O)(=O)N2CCOC23CCNCC3)cc1"
  System Name: "mu opiate receptor (MOR) (Rattus norvegicus, UniProt P33535)"
  % DAMGO (1 μM) [%]: 115.0
- Molecule: "COc1ccc(CCC(O)CC2c3c(cc4c(c3OC)OCO4)CC[N+]2(C)C)cc1 (centres unmarked)"
  System Name: "mu opiate receptor (MOR) (Rattus norvegicus, UniProt P33535)"
  % DAMGO (1 μM) [%]: 143.1
- Molecule: "CCc1ccc(S(=O)(=O)N2CCOC23CCN(CC2CC2)CC3)cc1 [Compound C0135M]"
  System Name: "mu opiate receptor (MOR) (Rattus norvegicus, UniProt P33535)"
  % DAMGO (1 μM) [%]: 124.9
- Molecule: "Cc1ccc(C(C)C)c(OCC(O)CN2CC(C)OC(C)C2)c1 (centres unmarked)"
  System Name: "mu opiate receptor (MOR) (Rattus norvegicus, UniProt P33535)"
  % DAMGO (1 μM) [%]: 73.8
- Molecule: "C=CCN1CCC2(CC1)OCCN2S(=O)(=O)c1ccc(OC)cc1 [Compound C0091M]"
  System Name: "mu opiate receptor (MOR) (Rattus norvegicus, UniProt P33535)"
  % DAMGO (1 μM) [%]: 108.5
- Molecule: "CC1CN(CC(O)COc2cccc(F)c2)CC(C)O1 (centres unmarked)"
  System Name: "mu opiate receptor (MOR) (Rattus norvegicus, UniProt P33535)"
  % DAMGO (1 μM) [%]: 134.2
- Molecule: "COc1c2c(cc3c1C(CC(=O)c1ccc(F)c(F)c1)[N+](C)(C)CC3)OCO2 (centres unmarked)"
  System Name: "mu opiate receptor (MOR) (Rattus norvegicus, UniProt P33535)"
  % DAMGO (1 μM) [%]: 47.4
- Molecule: "CN(C)c1cccc(OCC(O)CN2CCc3ccccc3C2)c1 (centres unmarked)"
  System Name: "mu opiate receptor (MOR) (Rattus norvegicus, UniProt P33535)"
  % DAMGO (1 μM) [%]: 68.6
- Molecule: "COc1ccccc1CC(O)CC1c2c(cc3c(c2OC)OCO3)CC[N+]1(C)C (centres unmarked)"
  System Name: "mu opiate receptor (MOR) (Rattus norvegicus, UniProt P33535)"
  % DAMGO (1 μM) [%]: 109.0
- Molecule: "O=S(=O)(c1ccc(Oc2ccccc2)cc1)N1CCC2(CC1)OCCN2S(=O)(=O)c1ccc(Oc2ccccc2)cc1 [Compound C0149M]"
  System Name: "mu opiate receptor (MOR) (Rattus norvegicus, UniProt P33535)"
  % DAMGO (1 μM) [%]: 124.8
